These data points were gathered from paper PMC6359284.

This section presents substances with their documented % binding to DX3puro (αvβ6−) cells values.
- Test system: DX3puro (αvβ6−) cells
- test: 18F-radiolabeled peptide cell binding assay, αvβ6− cells
- Type: cell-based
- condition: 60 min incubation at 37 °C, n = 3
Ends that are not written are not given here. * marks the point of attachment. (18F)FB = 4-[18F]fluorobenzoyl, radiolabelled form of FB, O=C(c1ccc([18F])cc1)*
quantityKind: % binding to DX3puro (αvβ6−) cells (%)

In [3]: df
Out[3]:
                                  substance           systemtested  reportedresult
0  VGDLTYLKK([^18F]FB) (VGDLTYLKK((18F)FB)-NH2) [[^18F]1]  DX3puro (αvβ6−) cells            11.7
1  RGDLADLRK([^18F]FB) (RGDLADLRK((18F)FB)) [[^18F]3]  DX3puro (αvβ6−) cells             5.3
2  RGDLRELAK([^18F]FB) (RGDLRELAK((18F)FB)) [[^18F]5]  DX3puro (αvβ6−) cells             5.9

* * *

Each entry below lists one item and its recorded IC50 value.
- systemTested: integrin αvβ6 (Homo sapiens, UniProt P06756+P18564)
- Construct: purchased R&D Systems
- test: Competitive binding ELISA, purified integrin αvβ6
- condition: competitive ELISA vs biotinylated TGFβ1-LAP, n = 3; read-out: IC50 (μM) αvβ6
quantityKind: IC50 (µM)

molecule	reportedResult
CC(C)C[C@H](NC(=O)[C@H](Cc1ccc(O)cc1)NC(=O)[C@@H](NC(=O)[C@H](CC(C)C)NC(=O)[C@H](CC(=O)O)NC(=O)CNC(=O)[C@@H](NC(=O)c1ccc(F)cc1)C(C)C)[C@@H](C)O)C(=O)N[C@@H](CCCCN)C(=O)N[C@@H](CCCCNC(=O)c1ccc(F)cc1)C(N)=O [1e]	0.84
CC(C)C[C@H](NC(=O)[C@H](Cc1ccc(O)cc1)NC(=O)[C@@H](NC(=O)[C@H](CC(C)C)NC(=O)[C@H](CC(=O)O)NC(=O)CNC(=O)[C@@H](N)C(C)C)[C@@H](C)O)C(=O)N[C@@H](CCCCN)C(=O)N[C@@H](CCCCNC(=O)c1ccc(F)cc1)C(=O)NCCOCCOCCOCCOCCOCCOCCOCCOCCOCCOCCOCCOCCOCCOCCOCCOCCOCCOCCOCCOCCOCCOCCOCCOCCOCCOCCOCCOCCC(N)=O [1f]	3.7

* * *

// reported IC50 per item
- systemTested: integrin αvβ6 (Homo sapiens, UniProt P06756+P18564)
- Construct: purchased R&D Systems
- test: Competitive binding ELISA, purified integrin αvβ6
- condition: competitive ELISA vs biotinylated TGFβ1-LAP, n = 3; read-out: IC50 (μM) αvβ6
- Method: Competitive binding ELISAs were performed to evaluate the binding affinity of each peptide relative to each integrin’s biotinylated natural ligand (transforming growth factor beta 1 latency-associated peptide or TGFβ1-LAP (G&P Biosciences, Santa Clara, CA, USA) for integrins αvβ6 and αvβ8, fibronectin (Thermo Fisher, Waltham, MA, USA) for integrin αvβ1, and vitronectin (Thermo Fisher) for integrins αvβ3 and αvβ5), as previously described. […]

compound	systemTested	IC50
CC(=O)N[C@H](C(=O)NCC(=O)N[C@@H](CC(=O)O)C(=O)N[C@@H](CC(C)C)C(=O)N[C@H](C(=O)N[C@@H](Cc1ccc(O)cc1)C(=O)N[C@@H](CC(C)C)C(=O)N[C@@H](CCCCN)C(=O)N[C@@H](CCCCNC(=O)c1ccc(F)cc1)C(=O)NCCOCCOCCOCCOCCOCCOCCOCCOCCOCCOCCOCCOCCOCCOCCOCCOCCOCCOCCOCCOCCOCCOCCOCCOCCOCCOCCOCCOCCC(N)=O)[C@@H](C)O)C(C)C [1g]	integrin αvβ6 (Homo sapiens, UniProt P06756+P18564)	> 100 µM
CC(C)C[C@H](NC(=O)[C@H](Cc1ccc(O)cc1)NC(=O)[C@@H](NC(=O)[C@H](CC(C)C)NC(=O)[C@H](CC(=O)O)NC(=O)CNC(=O)[C@@H](NC(=O)c1ccc(F)cc1)C(C)C)[C@@H](C)O)C(=O)N[C@@H](CCCCN)C(=O)N[C@@H](CCCCNC(=O)c1ccc(F)cc1)C(=O)NCCOCCOCCOCCOCCOCCOCCOCCOCCOCCOCCOCCOCCOCCOCCOCCOCCOCCOCCOCCOCCOCCOCCOCCOCCOCCOCCOCCOCCC(N)=O [1h]	integrin αvβ6 (Homo sapiens, UniProt P06756+P18564)	1.47 µM
